tgt: CDK12–cyclin K and DDB1 (Homo sapiens, UniProt Q16531+Q9NYV4, K965R)
Construct: His6–CDK12 (a.a. 713–1,052); full-length or beta-propeller B domain deletion (ΔBPB: a.a. 396–705 deleted) constructs of His6–DDB1ΔBPB, StrepII–Avi–DDB1, or His6–Spy–DDB1; made in house; host or cells: Trichoplusia ni High Five insect cells (baculovirus)
Sequence (Q9NYV4 713-1052 K965R): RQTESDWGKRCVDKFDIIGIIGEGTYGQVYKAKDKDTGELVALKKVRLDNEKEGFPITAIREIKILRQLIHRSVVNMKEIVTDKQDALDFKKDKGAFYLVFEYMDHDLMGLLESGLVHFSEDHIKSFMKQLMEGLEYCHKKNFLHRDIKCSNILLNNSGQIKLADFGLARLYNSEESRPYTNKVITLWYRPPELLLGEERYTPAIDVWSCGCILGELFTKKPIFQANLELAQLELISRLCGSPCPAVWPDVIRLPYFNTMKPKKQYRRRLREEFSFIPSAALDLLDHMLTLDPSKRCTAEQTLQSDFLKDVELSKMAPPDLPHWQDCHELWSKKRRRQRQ
Sequence (O75909 1-267 partner): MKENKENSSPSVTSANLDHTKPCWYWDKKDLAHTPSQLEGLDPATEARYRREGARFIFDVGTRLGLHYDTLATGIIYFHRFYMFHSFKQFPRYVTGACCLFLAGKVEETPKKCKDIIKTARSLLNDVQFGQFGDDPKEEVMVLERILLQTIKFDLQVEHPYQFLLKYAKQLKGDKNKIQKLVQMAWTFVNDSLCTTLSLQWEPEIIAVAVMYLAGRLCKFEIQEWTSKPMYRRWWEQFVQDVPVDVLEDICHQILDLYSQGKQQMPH
Sequence (Q16531 whole entry): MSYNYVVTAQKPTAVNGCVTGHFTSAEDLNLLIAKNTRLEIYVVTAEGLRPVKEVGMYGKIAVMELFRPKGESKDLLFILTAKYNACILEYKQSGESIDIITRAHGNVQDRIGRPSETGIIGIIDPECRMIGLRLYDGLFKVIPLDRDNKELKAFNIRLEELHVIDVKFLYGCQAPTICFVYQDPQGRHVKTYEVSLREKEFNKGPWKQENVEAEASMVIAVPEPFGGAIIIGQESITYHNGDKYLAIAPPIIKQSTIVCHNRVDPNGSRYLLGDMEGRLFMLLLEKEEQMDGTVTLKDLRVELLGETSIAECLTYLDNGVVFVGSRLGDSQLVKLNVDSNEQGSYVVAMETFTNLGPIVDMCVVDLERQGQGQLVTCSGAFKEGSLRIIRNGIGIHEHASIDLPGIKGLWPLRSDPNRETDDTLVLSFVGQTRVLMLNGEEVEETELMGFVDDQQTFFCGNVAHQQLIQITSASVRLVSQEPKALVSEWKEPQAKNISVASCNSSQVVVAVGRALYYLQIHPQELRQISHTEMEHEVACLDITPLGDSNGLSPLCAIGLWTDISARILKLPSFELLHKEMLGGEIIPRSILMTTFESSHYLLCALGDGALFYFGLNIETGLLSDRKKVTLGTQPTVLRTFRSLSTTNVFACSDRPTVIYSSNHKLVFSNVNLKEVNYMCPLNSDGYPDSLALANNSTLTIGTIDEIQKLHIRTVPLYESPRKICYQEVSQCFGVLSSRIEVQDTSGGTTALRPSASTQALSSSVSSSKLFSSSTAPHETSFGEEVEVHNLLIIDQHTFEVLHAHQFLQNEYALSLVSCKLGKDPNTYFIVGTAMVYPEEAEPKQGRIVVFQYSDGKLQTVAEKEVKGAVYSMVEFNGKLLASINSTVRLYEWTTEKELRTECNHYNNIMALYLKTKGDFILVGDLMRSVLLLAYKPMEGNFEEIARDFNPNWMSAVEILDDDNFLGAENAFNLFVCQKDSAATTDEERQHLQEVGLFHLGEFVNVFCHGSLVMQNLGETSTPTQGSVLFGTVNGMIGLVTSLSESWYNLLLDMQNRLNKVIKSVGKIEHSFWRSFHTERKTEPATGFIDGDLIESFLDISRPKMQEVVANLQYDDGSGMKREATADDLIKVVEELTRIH
run.description: TR-FRET ternary complex formation assay (compound titration)
Format: binding
cond: TR-FRET complex formation
measured.metric: fold lower affinity than DS11

smiles_entry=CC[C@H](CO)Nc1nc(NCCCCCCc2ccccc2)c2ncn(C(C)C)c2n1 data_value="5-10 fold"
smiles_entry=CC[C@H](CO)Nc1nc(NCCCCCc2ccccc2)c2ncn(C(C)C)c2n1 data_value="5-10 fold"
smiles_entry=CC[C@H](CO)Nc1nc(NCCCCc2ccccc2)c2ncn(C(C)C)c2n1 data_value="5-10 fold"

Note: attention shifts to another entry.
Request: fold lower affinity than DS11, test system CDK12–cyclin K and DDB1 (Homo sapiens, UniProt Q16531+Q9NYV4, K965R), entry CC[C@H](CO)Nc1nc(NCCc2ccccc2)c2ncn(C(C)C)c2n1
12-22 fold

----------
tgt: CDK12–cyclin K and DDB1 (Homo sapiens, UniProt Q16531+Q9NYV4, K965R)
Construct: His6–CDK12 (a.a. 713–1,052); full-length or beta-propeller B domain deletion (ΔBPB: a.a. 396–705 deleted) constructs of His6–DDB1ΔBPB, StrepII–Avi–DDB1, or His6–Spy–DDB1; made in house; host or cells: Trichoplusia ni High Five insect cells (baculovirus)
run.description: TR-FRET Kd determination, quadratic fit, 50 nM or 10 nM CDK12–cyclin K
Assay type: binding
cond: 10 nM CDK12-cyclin K; compound 125.279 nM
From the text: Equation (2) is a quadratic binding equation used for Kd determination,where Top and Bottom refer to the curve plateaus. […]
measured.metric: TR-FRET signal

Please review the following examples before continuing.
molecule="CCC(CO)Nc1nc(NCc2ccc(-c3ccccc3)cc2)c2ncn(C(C)C)c2n1 (stereo not shown) [DS16]" data_value=0.4363
molecule="CCC(CO)Nc1nc(NCc2ccc(-c3ccccn3)cc2)c2ncn(C(C)C)c2n1 (stereo not shown) [CR8, reference compound]" data_value=0.4982

Request: TR-FRET signal, test system CDK12–cyclin K and DDB1 (Homo sapiens, UniProt Q16531+Q9NYV4, K965R), entry CC[C@H](CO)Nc1nc(NCc2nc3cc(Cl)c(Cl)cc3[nH]2)c2ncn(C(C)C)c2n1 [DS17]
0.582

Request: TR-FRET signal, test system CDK12–cyclin K and DDB1 (Homo sapiens, UniProt Q16531+Q9NYV4, K965R), entry Cc1cc2nc(CNc3nc(N4CCN(C)CC4)nc4c(Br)cnn34)[nH]c2cc1C [DS73, reference compound]
0.5329

----------
tgt: CDK12–cyclin K and DDB1 (Homo sapiens, UniProt Q16531+Q9NYV4, K965R)
Construct: His6–CDK12 (a.a. 713–1,052); full-length or beta-propeller B domain deletion (ΔBPB: a.a. 396–705 deleted) constructs of His6–DDB1ΔBPB, StrepII–Avi–DDB1, or His6–Spy–DDB1; made in house; host or cells: Trichoplusia ni High Five insect cells (baculovirus)
run.description: TR-FRET ternary complex formation assay (compound titration)
Format: binding
cond: in vitro complex formation, 50 nM CDK12–cyclin K, 100 nM DDB1; text and figures; read-out: TR-FRET EC50
pEC50: −log10 of the molar value.
Quick rule for you: pEC50 at 7 or higher means Criterion met, lower means Criterion not met.

compound=CC[C@H](CO)Nc1nc(NCc2ccc(OCCO)cc2)c2ncn(C(C)C)c2n1 category_label="Criterion not met"
compound=CC[C@H](CO)Nc1nc(NCCCCc2ccccc2)c2ncn(C(C)C)c2n1 category_label="Criterion not met"

State whether the measured pEC50 reaches 7, counting equality as reaching it, for CC[C@H](CO)Nc1nc(NCCCc2ccccc2)c2ncn(C(C)C)c2n1
Criterion met

State whether the measured pEC50 reaches 7, counting equality as reaching it, for CC[C@H](CO)Nc1nc(NCCCc2ccnn2C)c2ncn(C(C)C)c2n1
Criterion not met

State whether the measured pEC50 reaches 7, counting equality as reaching it, for CC(C)n1cnc2c(NCc3ccc(-c4ccccn4)cc3)nc(N3CCCC[C@H]3CCO)nc21
Criterion met

State whether the measured pEC50 reaches 7, counting equality as reaching it, for CC[C@H](CO)Nc1nc(NCCCCCCc2ccccc2)c2ncn(C(C)C)c2n1
Criterion not met

State whether the measured pEC50 reaches 7, counting equality as reaching it, for CC[C@H](CO)Nc1nc(NCc2ccc(-c3ccc(C)s3)cc2)c2ncn(C(C)C)c2n1
Criterion met

State whether the measured pEC50 reaches 7, counting equality as reaching it, for Cn1cc(-n2cnc3c(NCc4nc5ccccc5[nH]4)nc(N4CCOCC4)nc32)cn1
Criterion met

State whether the measured pEC50 reaches 7, counting equality as reaching it, for CC(C)c1nn(-c2c(Cl)cccc2Cl)c2nc(Cc3ccc(OCCO)cc3)[nH]c(=O)c12
Criterion met

----------
tgt: CDK12–cyclin K and DDB1 (Homo sapiens, UniProt Q16531+Q9NYV4, K965R)
Construct: His6–CDK12 (a.a. 713–1,052); full-length or beta-propeller B domain deletion (ΔBPB: a.a. 396–705 deleted) constructs of His6–DDB1ΔBPB, StrepII–Avi–DDB1, or His6–Spy–DDB1; made in house; host or cells: Trichoplusia ni High Five insect cells (baculovirus)
run.description: TR-FRET Kd determination, quadratic fit, 50 nM or 10 nM CDK12–cyclin K
Format: binding
cond: 50 nM CDK12-cyclin K; compound 15.84 nM
measured.metric: TR-FRET signal
Enter the number alone.

Please review the following examples before continuing.
compound="Cc1cc2nc(CNc3nc(N4CCN(C)CC4)nc4c(Br)cnn34)[nH]c2cc1C [DS73, reference compound]" measured_metric="TR-FRET signal" data_value=0.9093
compound=CC[C@H](CO)Nc1nc(NCc2nc3cc(Cl)c(Cl)cc3[nH]2)c2ncn(C(C)C)c2n1 measured_metric="TR-FRET signal" data_value=1.774
compound="CCC(CO)Nc1nc(NCc2ccc(-c3ccccn3)cc2)c2ncn(C(C)C)c2n1 (stereo not shown) [CR8, reference compound]" measured_metric="TR-FRET signal" data_value=0.7533

Request the reported TR-FRET signal associated with CCC(CO)Nc1nc(NCc2ccc(-c3ccccc3)cc2)c2ncn(C(C)C)c2n1 (stereo not shown)
1.0227

----------
tgt: CDK12–cyclin K and DDB1 (Homo sapiens, UniProt Q16531+Q9NYV4, K965R)
Construct: His6–CDK12 (a.a. 713–1,052); full-length or beta-propeller B domain deletion (ΔBPB: a.a. 396–705 deleted) constructs of His6–DDB1ΔBPB, StrepII–Avi–DDB1, or His6–Spy–DDB1; made in house; host or cells: Trichoplusia ni High Five insect cells (baculovirus)
run.description: TR-FRET ternary complex formation assay (compound titration)
Format: binding
cond: sheet MOESM7; read-out: log TR-FRET EC50 (converted)
measured.metric: EC50 (nM)
Just the number please, in nM, no unit attached.

Please review the following examples before continuing.
molecule="O=C(CSc1nnc2c(n1)[nH]c1ccccc12)Nc1ccc(Cl)cn1 [dCeMM2]" data_value=83.2
molecule="C[C@H](C(=O)Nc1nc2ccccc2[nH]1)N1Cc2ccccc2C1=O [compound 919278]" data_value=37.8
molecule="CC[C@H](CO)Nc1nc(NCc2nc3cc(Cl)c(Cl)cc3[nH]2)c2ncn(-c3cnn(C)c3)c2n1 [DS22]" data_value=19.3
molecule="CC[C@H](CO)Nc1nc(NCc2ccn(-c3cccc(Cl)c3)n2)c2ncn(C(C)C)c2n1 [DS43]" data_value=43.7

Request the reported EC50 associated with CC[C@H](CO)Nc1nc(NCCCc2cccc(F)c2)c2ncn(C(C)C)c2n1 [DS29]
45.7

----------
tgt: CDK2–cyclin A (Homo sapiens, UniProt P24941)
Construct: purchased Thermo Fisher
run.description: Lanthascreen kinase binding assay, CDK2
cond: Lanthascreen, average; Extended Data Fig. 8; read-out: CDK2 IC50
measured.metric: IC50

Please review the following examples before continuing.
smiles_entry=CC[C@H](CO)Nc1nc(NCc2ccc(-c3ccccn3)cc2)c2ncn(-c3cnn(C)c3)c2n1 tgt="CDK2–cyclin A (Homo sapiens, UniProt P24941)" measured_metric=IC50 data_value="> 10 µM"
smiles_entry=CN1CCN(c2nc(NCc3nc4c(F)c(F)ccc4[nH]3)n3ncc(Br)c3n2)CC1 tgt="CDK2–cyclin A (Homo sapiens, UniProt P24941)" measured_metric=IC50 data_value="> 10 µM"
smiles_entry=O=C(CSc1nc2ccccc2[nH]1)Nc1ccc(Cl)cn1 tgt="CDK2–cyclin A (Homo sapiens, UniProt P24941)" measured_metric=IC50 data_value="> 10 µM"

Note: attention shifts to another entry.
Request the reported IC50 associated with Cn1cc(-n2cnc3c(NCc4ccc(-c5ccccn5)cc4)nc(N4CCOCC4)nc32)cn1
> 10 µM

Just for reference, paper PMC10746543 is where these values come from.
